Target: kinase protein levels in MCF-7 cells (Homo sapiens)
Construct: endogenous in cells; host or cells: MCF-7
Sequence (A0A096LP01 whole entry): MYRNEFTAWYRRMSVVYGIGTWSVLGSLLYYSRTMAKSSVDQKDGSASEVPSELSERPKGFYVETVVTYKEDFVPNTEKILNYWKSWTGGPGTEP
Assay: TMT-labeled quantitative proteomics
Type: cell-based
Conditions: protein LINC00493; MCF7; 1 µM; set5
Experimental: 50 µl of SDS Lysis Buffer (2% SDS, 50 mM TRIS pH 8.5, 10 mM TCEP, 40 mM CAA) was added to each sample. Cells were transferred into low binding reaction tubes (Eppendorf: Methanol/Chloroform Precipitation. 200 µl of methanol and 50 µl of chloroform were added to each sample reaction tube and mixed via vortex. 150 µl of milliQ-H2O were added and samples were vortexed further. […] Dissolving the Protein Pellet and Protein Quantification. […] Protein quantification via PierceTM […]
METRIC: log2FC (compound/DMSO)

# COMPOUND, log2FC (compound/DMSO)
records = [
    ("Cc1ncsc1-c1ccc(CNC(=O)[C@@H]2C[C@@H](O)CN2C(=O)[C@@H](NC(=O)CCOCCOCCOCCOCCOCCOCCN2CCN(c3cc(Nc4cc(C5CC5)[nH]n4)nc(Nc4ccc(CC#N)cc4)n3)CC2)C(C)(C)C)cc1 [4-b]", 0.05687),
    ("Cc1ncsc1-c1ccc(CNC(=O)[C@@H]2C[C@@H](O)CN2C(=O)[C@@H](NC(=O)CCCCCCN2CCN(c3ccc(Nc4ncc(Cl)c(Nc5ccccc5C(N)=O)n4)cc3)CC2)C(C)(C)C)cc1 [6-d]", -0.9636),
]

## Task Could you share which log2FC (compound/DMSO) value was measured for Cc1ncsc1-c1ccc(CNC(=O)[C@@H]2C[C@@H](O)CN2C(=O)[C@@H](NC(=O)CCCCCCN2CCN(c3cc(Nc4cc(C5CC5)[nH]n4)nc(Nc4ccc(CC#N)cc4)n3)CC2)C(C)(C)C)cc1 [4-c] ?
## Result 0.3546

## Task Would you kindly repeat that for Cc1ncsc1-c1ccc(CNC(=O)[C@@H]2C[C@@H](O)CN2C(=O)[C@@H](NC(=O)CCOCCOCCN2CCN(c3ccc(Nc4ncc(Cl)c(Nc5ccccc5C(N)=O)n4)cc3)CC2)C(C)(C)C)cc1 [6-a] ?
## Result -0.4581

The origin of these recorded values is paper PMC11851430.
